Tested on: panel of 9 cancer cell lines
Experiment: In vitro cytotoxicity across the panel
Type: cell-based
Details: range over the panel, 48 hours; read-out: IC50s across cancer cell lines
pIC50: −log10 of the molar value.
Observed Property: pIC50

Prompt: Requested read-out: pIC50. Entry: "CC[C@@]1(O)C(=O)OCc2c1cc1n(c2=O)Cc2cc3ccccc3nc2-1"
Response: 5.48 to 7.70

----------
// reported IC50 for each item listed
System: A549
Test: In vitro cytotoxicity, MTT assay
Type: cell-based
Settings: Homo sapiens; A549 (lung), 48 hours, mean ± SD
Give the quantity in µM, number only.

1. CC[C@@]1(O)C(=O)OCc2c1cc1n(c2=O)Cc2cc3ccccc3nc2-1
0.3

Next compound, IC50 to be filled in.
Prompt: Notebook: pull reported IC50 for A549, entry "COc1cccc2c1C(=O)c1c(O)c3c(c(O)c1C2=O)C[C@@](O)(C(=O)CO)C[C@@H]3O[C@H]1C[C@H](N)[C@H](O)[C@H](C)O1"
Response: 0.5
